Listed next: entries and their corresponding cytotoxicity at 10 µM.
# Measurement description: Toxicity liver stage against HepG2, at 10uM
# Format: cell-based
# Design: test concentration 10 uM, cell line HepG2-A16-CD81EGFP
# Condition notes: human, HepG2-A16-CD81EGFP cells; read-out: INHIBITION
Recorded endpoint: cytotoxicity at 10 µM (%)

> print(dat)
                                    compound  observed.result
 1  Cc1nn(C)c(Cl)c1C1CCCN1C(=O)c1cc(Cl)c[nH]1 (configuration not stated)            -6.83
 2     CC(=O)N1CCC2(CCN(Cc3cccc(F)c3)CC2)CC1            -5.46
 3  CC(NCc1cc(O)c2cccc(F)c2n1)c1ccccc1O (configuration not stated)             4.28
 4       Cc1cc(N2CCN(Cc3ccc(C)o3)CC2)cc(C)n1            -6.61
 5  Cc1cn[nH]c1C1CCCCN1C(=O)CCN1CCCCCC1 (configuration not stated)              5.7
 6  CCn1cc(NC(=O)CN2C(=O)CC(C)(C)c3ccccc32)cn1             -1.7
 7                O=c1[nH]c2ncccc2n1C1CCCCC1             3.16
 8  O=C(NCC1CCCO1)C1CCN(Cc2nc(C3CC3)no2)CC1 (configuration not stated)             1.11
 9  Cc1nc(CCN)cc(N(C)Cc2nc3ccc(F)cc3[nH]2)n1           -0.581
10  CS(=O)(=O)NCC(=O)N[C@H]1CN(CC2CC2)C[C@@H]1c1ccccc1            -0.29
11  COCCCN1CCC(c2nc3c([nH]2)CC(C)(C)CNC3=O)C1 (configuration not stated)           0.0531
12  CC(=O)N1CCCCC1c1nc(C)cc(-c2ccccc2C(=O)O)n1 (configuration not stated)            -12.8

----------
Listed next: entries and their corresponding cytotoxicity at 10 µM.
# Measurement description: Toxicity liver stage against HepG2, at 10uM
# Type: cell-based
# Design: test concentration 10 uM, cell line HepG2-A16-CD81EGFP
# Condition notes: human, HepG2-A16-CD81EGFP cells; read-out: INHIBITION
Recorded endpoint: cytotoxicity at 10 µM (%)

> print(dat)
                                   compound      recorded.endpoint  observed.result
1         O=S(=O)(c1ccc(Cl)s1)N1CCCn2ncnc21  cytotoxicity at 10 µM            -3.06
2  Cc1cccc(CN2C[C@H](OCc3ccccn3)[C@H]3COC[C@H]32)n1  cytotoxicity at 10 µM            -92.6
3           CCN(C)c1ncnc2c1CCN(Cc1nccs1)CC2  cytotoxicity at 10 µM            -2.46
4  Cc1cc(C)c(S(=O)(=O)Nc2c(C)nc(N(C)C)nc2C)cc1C  cytotoxicity at 10 µM             6.63
5  CS(=O)(=O)N[C@H]1CCO[C@]2(CCN(C(=O)c3ccccn3)C2)C1  cytotoxicity at 10 µM            -73.3
6  CC(C)c1noc(-c2ccc(NC(=O)NCC(O)C(C)C)cc2)n1 (stereo unspecified)  cytotoxicity at 10 µM            -7.03

----------
# Measurement description: Toxicity liver stage against HepG2, at 10uM
# Format: cell-based
# Set-up: test concentration 10 uM, cell line HepG2-A16-CD81EGFP
# Condition notes: human, HepG2-A16-CD81EGFP cells; read-out: INHIBITION
Recorded endpoint: cytotoxicity at 10 µM (%)

> print(dat)
                                    compound      recorded.endpoint  observed.result
 1      COc1ccc(-c2nnc(CNCCn3cc(C)cn3)o2)cc1  cytotoxicity at 10 µM             1.32
 2     CCOc1ccc(S(=O)(=O)Nc2cnc(OC)nc2OC)cc1  cytotoxicity at 10 µM             44.7
 3  Fc1ccc(C(CNc2ccncn2)N2CCCC2)cc1 (stereo not drawn)  cytotoxicity at 10 µM             15.9
 4     CN(C)CCNC(=O)c1nc2c(o1)CN(c1ncccn1)C2  cytotoxicity at 10 µM           -0.603
 5      Cc1cnc(N2CCc3c(cnc(C)c3C(=O)O)C2)nc1  cytotoxicity at 10 µM              8.1
 6  CS(=O)(=O)N1Cc2ccccc2CC2(CCN(Cc3ccncc3)C2)C1 (stereo not drawn)  cytotoxicity at 10 µM             4.59
 7  O=C(O)C1(n2ccc(-c3ccco3)n2)CCN(Cc2cccs2)CC1  cytotoxicity at 10 µM             -125
 8   O=C(NCCCNC(=O)c1cccc(O)c1)Nc1ccc(F)cc1F  cytotoxicity at 10 µM              -11
 9      Cc1nnc(CN(Cc2ccc(Cl)c(Cl)c2)C(C)C)o1  cytotoxicity at 10 µM             4.91
10                     COCCOCC(=O)Nc1ccccc1F  cytotoxicity at 10 µM             14.7
11  Cc1csc2nc3n(c(=O)c12)CCN(Cc1c[nH]cn1)CC3  cytotoxicity at 10 µM            -18.8
12     Cc1cccc2c1cnn2CCC(=O)NCc1csc(C2CC2)n1  cytotoxicity at 10 µM             4.22
13  O=C(c1ccc2c(c1)CCC2)N1CCN(c2ccc(Cl)cn2)CC1  cytotoxicity at 10 µM            -2.27
14  CCCc1nc(C(=O)N(C)Cc2cnn(-c3cccc(OC)c3)c2)cs1  cytotoxicity at 10 µM             6.39
15  Cc1cnn(C2CN(CC(O)COCc3ccc4c(c3)OCO4)C2)c1 (stereo not drawn)  cytotoxicity at 10 µM            -5.41
16  CN1CCN(Cc2cnn(-c3ccccc3Cl)c2)[C@H]2CS(=O)(=O)C[C@H]21  cytotoxicity at 10 µM             6.19
17         Cn1cc(CNCCc2cccnc2)c(-c2cccnc2)n1  cytotoxicity at 10 µM             9.37
18  O=C1NC2(CCN(Cc3nccs3)CC2)CC1c1ccncc1 (stereo not drawn)  cytotoxicity at 10 µM            -1.31
19              COC(=O)c1ccn(COc2ccccc2Cl)n1  cytotoxicity at 10 µM             8.99
20  Cc1cccc(CN2Cc3ncn(C)c3C(COCC(=O)N(C)C)C2)n1 (stereo not drawn)  cytotoxicity at 10 µM             4.56
21  CN1CCN(Cc2cnc3n2CCN(C(=O)c2ccncc2)C3)CC1  cytotoxicity at 10 µM            -73.8
22  Cc1occc1C(=O)N1CCC2(CC1)CC(c1cccnc1)C(=O)N2C (stereo not drawn)  cytotoxicity at 10 µM            -7.09
23     Cn1nccc1C1CCN(Cc2cnn(-c3ccccc3)n2)CC1  cytotoxicity at 10 µM             27.2
24  Cc1ccc(CCNC(=O)NC2CCN(CC(F)(F)F)C2=O)cn1 (stereo not drawn)  cytotoxicity at 10 µM             4.75
25  COCCN1C[C@@H](C)[C@@]2(COCCN(C(=O)c3ccno3)C2)C1  cytotoxicity at 10 µM              7.4
26                Cc1nc(COC(=O)c2cccnc2C)no1  cytotoxicity at 10 µM             -0.2
27  Cc1cc(C(=O)N2CCCC(c3nccn3Cc3ccncc3)C2)no1 (stereo not drawn)  cytotoxicity at 10 µM            0.471
28  Cc1cc(NC(=O)CN(C)C2CCCN(c3cccnn3)C2)n(C)n1 (stereo not drawn)  cytotoxicity at 10 µM            -12.4
29               c1ccc(CCN2CC(n3cccn3)C2)nc1  cytotoxicity at 10 µM             -0.2
30  Cc1ccc(-c2nn3c(nc2=O)-c2ccccc2NC3C(=O)O)cc1C (stereo not drawn)  cytotoxicity at 10 µM             19.3
31                  Nc1nnnn1NCc1cccc2ccccc12  cytotoxicity at 10 µM             10.4
32  COc1cc2c(cc1OC)C(=O)C(Sc1nncn1C)C2 (stereo not drawn)  cytotoxicity at 10 µM            -5.65
33  Cc1cc(O)cc(C2CCCN2C(=O)c2ccn(C)n2)n1 (stereo not drawn)  cytotoxicity at 10 µM            -2.82
34     NS(=O)(=O)c1cnc(NCC2(c3ccccc3)CCC2)s1  cytotoxicity at 10 µM            -4.88
35    Cc1cccc(C)c1NC(=O)c1n[nH]c(-n2cnnc2)n1  cytotoxicity at 10 µM            -10.6
36  COCC(=O)NC(C)Cc1cccc(OC)c1 (stereo not drawn)  cytotoxicity at 10 µM            -10.6
37  CCn1cc(-c2cc(-c3ccn(C)c3)nc(N)c2C#N)cc1C#N  cytotoxicity at 10 µM             2.11
38  Cc1c(C(C)NC2CCN(C(C)C)CC2)cnn1-c1ccc(F)cc1F (stereo not drawn)  cytotoxicity at 10 µM            -6.58
39  Cc1noc(C2CCN(C(=O)c3ccc(NC4CC4)nc3)CC2)n1  cytotoxicity at 10 µM             -7.1
40  CNC(=O)N1CC[C@@H]2CN(Cc3cccnc3)S(=O)(=O)[C@@H]2CC1  cytotoxicity at 10 µM              4.4
41  O=C(O)c1ccccc1-n1cc(CN2CCOC(c3cc[nH]n3)C2)cn1 (stereo not drawn)  cytotoxicity at 10 µM             3.33
42  CC(C)(C)NC(=O)C1CCCCN1Cc1nccn1CC(F)(F)F (stereo not drawn)  cytotoxicity at 10 µM             6.21
43          CC(=O)Nc1nc(C2CCN(C(C)=O)CC2)cs1  cytotoxicity at 10 µM              4.3
44               CCN(CCO)Cc1ccc(Br)c2cccnc12  cytotoxicity at 10 µM             1.95
45  O=S(=O)(Nc1ccc(Oc2ccc3c(c2)OCO3)cc1)N1CCCCC1  cytotoxicity at 10 µM            -29.3
46  O=C(NCc1cccnc1-n1cccn1)C1CC(=O)N(CC2CC2)C1 (stereo not drawn)  cytotoxicity at 10 µM             2.77
47  Cc1c[nH]c(CN(C)C(C(=O)O)c2c(F)cccc2OC(C)C)n1 (stereo not drawn)  cytotoxicity at 10 µM            -50.6
48  CCc1nnc(CN(C)C(=O)C(CC)n2c(CC)nc3ccccc32)o1 (stereo not drawn)  cytotoxicity at 10 µM            -4.27
